# tested.on: T1, SHANK1, Q9Y566
# T1 sequence (Q9Y566 658-767, limits assumed, looked up): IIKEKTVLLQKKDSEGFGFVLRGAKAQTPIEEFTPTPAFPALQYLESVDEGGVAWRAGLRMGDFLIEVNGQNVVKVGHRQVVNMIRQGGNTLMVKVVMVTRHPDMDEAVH
# assay.protocol: holdup assay
# Design: key: below the threshold = too weak to quantify, mostly under pKd 3.1 to 4
# measurement.context: plain residues with an end cap or a label only (N-terminal biotin on a linker: ado-ado)
reported.metric: pKd

binder | result
TSSMRGMDAV [RSRC2, Q7L4I2] | below the threshold
SSALYGESDL [ACTN2, P35609] | 3.91
FNSYSLTGYV [CLDN2, P57739] | below the threshold
SNAGNTATKA [NOSTRIN, Q8IVI9] | below the threshold
LSEFKAMDSI [CTNNA1, P35221] | below the threshold

Query (binder): CLREWCDAFL [BANF1, O75531] ; field requested: pKd
4.14

Cool, now LRSPRTPSEV [OR10G3, Q8NGC4]
below the threshold

Then this binder: QSLNRMEYIV [JAG1, P78504]
below the threshold

Record: LPHGHSTTRV [NLGN4X, Q8N0W4]
4.88

Input EKKTLIGIKL [GOT1L1, Q8NHS2]
below the threshold

What about this binder? QHKTQLQTLI [BPIFA2, Q96DR5]
4.02

Then this binder: PPYRHRNTVV [ERBB4, Q15303]
below the threshold

Quick one: IKAIVDLTGL [TRAF2, Q12933]
3.49

Next record, please: GSGAVEMESV [AQP6, Q13520]
below the threshold

Next binder up: KKMPSIESDV [GRIN2A, Q12879]
below the threshold

Another binder to look at: VDSTVKVWTC [TRAF7, Q6Q0C0]
below the threshold
